system: BaF3 cells with engineered EGFR d746-750/T790M; assay: 3-Day CellTiter Glo (CTG) cell proliferation assay, BaF3 EGFR d746-750/T790M; type: cell-based; details: Mus musculus; BaF3 EGFR d746-750/T790M cells, 3-day CTG proliferation, 72 hours
measured attribute: pIC50
# pIC50 is unitless: minus log10 of the molar concentration; print number only

Lookup result for Cc1nn(C)c2c1/C=C/c1n[nH]c3c(C)nc(cc13)-c1c(C)nn(C)c1O[C@@H](C)CN(C(C)C)C2 [Ex. 106] ; measured pIC50: 8.32

pIC50 in this record for CCOc1nn(C[C@H](C)O)c2c1/C=C/c1n[nH]c3c(C)nc(cc13)-c1c(C)nn(C)c1O[C@@H](C)CN(C)C2 [Ex. 90] : 9.21

# pIC50 of CCOc1nn(CCO)c2c1/C=C/c1n[nH]c3c(C)nc(cc13)-c1c(C)nn(C)c1O[C@@H](C)CN(C)C2 [Ex. 47] = 8.82

The measured pIC50 associated with C=CC(=O)N1Cc2c(c(OCC)nn2[C@@H](C)CO)/C=C/c2n[nH]c3cnc(cc23)-c2c(C)nn(C)c2O[C@@H](C)C1 [Ex. 115] reads 8.52

Noted for CCOc1nn([C@H](C)CO)c2c1/C=C/c1n[nH]c3cnc(cc13)-c1c(C)nn(C)c1O[C@@H](C)CN(C)C2 [Ex. 88] : its pIC50 reads 8.81

So, CCOc1nn(CCO)c2c1/C=C/c1n[nH]c3c(C)nc(cc13)-c1c(C)nn(C)c1OCCN(C)C2 [Ex. 75] ? Its pIC50 was 6.69

For CCOc1nn(CCO)c2c1/C=C/c1n[nH]c3cnc(cc13)-c1c(C)nn(C)c1OC[C@@H](C)N(C1CC1)C2 [Ex. 114] the compound record lists pIC50 as 8.43
